- measured target: Beta-lactamase OXA-9 (Klebsiella aerogenes) (UniProt P0A3M4)
- Sequence (P0A3M4 whole entry): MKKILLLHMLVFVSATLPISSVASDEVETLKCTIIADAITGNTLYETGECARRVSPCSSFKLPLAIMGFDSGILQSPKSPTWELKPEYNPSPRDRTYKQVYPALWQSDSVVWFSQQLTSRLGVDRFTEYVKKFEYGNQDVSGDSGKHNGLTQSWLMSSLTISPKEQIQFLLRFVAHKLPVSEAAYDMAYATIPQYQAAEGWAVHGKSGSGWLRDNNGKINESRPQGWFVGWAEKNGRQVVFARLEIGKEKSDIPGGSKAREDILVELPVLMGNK
- test summary: Inhibition of beta-lactamase of Enterobacter aerogenes relative to oxacillin sulfoxide(=1)
parameter measured: Relative inhibition
Could you respond with only the numeric value?

So what's the measured Relative inhibition for this one? Cc1onc(-c2ccccc2)c1C(=O)N[C@@H]1C(=O)N2[C@@H]1SC(C)(C)[C@@H]2C(=O)O
5000

So what's the measured Relative inhibition for this one? Cc1onc(-c2ccccc2Cl)c1C(=O)N[C@@H]1C(=O)N2[C@@H]1SC(C)(C)[C@@H]2C(=O)O
5000

So what's the measured Relative inhibition for this one? Cc1onc(-c2ccccc2)c1C(=O)N[C@@H]1C(=O)N2[C@@H]1[S+]([O-])C(C)(C)[C@@H]2C(=O)O (stereo partly drawn)
1
